molecular target: adenosine A2A receptor (Rattus norvegicus, UniProt P30543); construct: from tissue; host or cells: rat corpus striatum membrane preparation; experiment: Adenosine A2A receptor binding test (3H-CGS 21680 binding); conditions: test compound 10^−7 mol/L; 3H-CGS 21680 binding, rat corpus striatum; read-out: A2A Receptor inhibition rate (%) at 10^−7 mol/L
Sequence (P30543 whole entry): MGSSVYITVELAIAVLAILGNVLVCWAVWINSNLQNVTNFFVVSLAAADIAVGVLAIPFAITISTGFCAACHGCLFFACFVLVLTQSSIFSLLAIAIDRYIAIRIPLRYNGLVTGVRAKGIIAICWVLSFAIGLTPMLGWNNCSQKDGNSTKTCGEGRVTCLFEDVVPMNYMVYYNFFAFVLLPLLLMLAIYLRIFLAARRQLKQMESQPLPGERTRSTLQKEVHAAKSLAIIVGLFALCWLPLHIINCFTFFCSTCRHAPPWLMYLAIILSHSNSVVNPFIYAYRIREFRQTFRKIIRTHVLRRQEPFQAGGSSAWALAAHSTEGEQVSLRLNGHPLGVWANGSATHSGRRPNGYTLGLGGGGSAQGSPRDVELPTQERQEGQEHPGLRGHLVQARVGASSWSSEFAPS
Counter-ions that a name gives are not always drawn.
Recorded Metric: inhibition at 0.1 µM (%)
Give bare numbers, in %.

Before answering, review these 6 worked examples.
{"columns": ["Compound", "Unit Text", "Result Value"],
 "data": [
  ["CN(Cc1ccco1)C(=O)c1cc2nc(-c3ccco3)nn2c(N)n1", "%", 83],
  ["CC(=O)NCCNCc1ccc(-c2cc3nc(-c4ccco4)nn3c(N)n2)cc1 [Compound 16, monohydrochloride]", "%", 36],
  ["CC(=O)c1cc2nc(-c3ccco3)nn2c(N)n1", "%", 84],
  ["COC(C)(C)c1cc2nc(-c3ccco3)nn2c(N)n1", "%", 47],
  ["CC(C)NC(=O)c1cc2nc(-c3ccco3)nn2c(N)n1", "%", 89],
  ["Nc1nc(CCO)cc2nc(-c3ccco3)nn12", "%", 91]
]}

Now consider a different compound.
Query: Sample COc1ccc(CN(C)C(=O)c2cc3nc(-c4ccco4)nn3c(N)n2)cc1 [Compound 108, monohydrochloride] — what was its inhibition at 0.1 µM?
Response: 65
